target: TGFβ1 (R&D Systems); experiment: cell-based or functional assay
Sequence (P01137 279-390): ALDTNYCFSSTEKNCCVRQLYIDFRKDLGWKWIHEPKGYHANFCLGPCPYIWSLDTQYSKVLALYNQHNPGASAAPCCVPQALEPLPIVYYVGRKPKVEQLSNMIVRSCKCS
# CMVIC pSmad-3, IC50 listing for each entry below
RECORDED ENDPOINT: CMVIC pSmad-3, IC50 (nM)

BINDER	UNIT ANNOTATION	VALUE OBSERVED
Can-SL501-VH3 S112E / Can-SL501-VL2 (antibody, V domains shown) VH: EVQLVESGGDLVKPGGSLRLSCVASGFTFSSYGMHWVRQAPGKELEWVAVISYDGSIKYYADAVKGRFTISRDNAKNTLYLQMNSLRAEDTAVYYCARTGEYSGYDTDPQYEWGQGTTVTVSS VL: EIVMTQSPGSLAGSAGESVSINCRASQGIGDDLGWYQQKPGERPKLLIYGTSTLQSGVPARFSSSGSGTDFTLTINNLQAEDVGDYYCLQDSNYPLTFGAGTK	nM	5.03
Can-SL501-VH3 Q110E / Can-SL501-VL2 (antibody, V domains shown) VH: EVQLVESGGDLVKPGGSLRLSCVASGFTFSSYGMHWVRQAPGKELEWVAVISYDGSIKYYADAVKGRFTISRDNAKNTLYLQMNSLRAEDTAVYYCARTGEYSGYDTDPEYSWGQGTTVTVSS VL: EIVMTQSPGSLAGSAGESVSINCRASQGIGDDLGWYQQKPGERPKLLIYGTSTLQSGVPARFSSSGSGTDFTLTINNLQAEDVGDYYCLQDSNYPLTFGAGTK	nM	6.65
Can-SL501-VH3 Y111T / Can-SL501-VL2 (antibody, V domains shown) VH: EVQLVESGGDLVKPGGSLRLSCVASGFTFSSYGMHWVRQAPGKELEWVAVISYDGSIKYYADAVKGRFTISRDNAKNTLYLQMNSLRAEDTAVYYCARTGEYSGYDTDPQTSWGQGTTVTVSS VL: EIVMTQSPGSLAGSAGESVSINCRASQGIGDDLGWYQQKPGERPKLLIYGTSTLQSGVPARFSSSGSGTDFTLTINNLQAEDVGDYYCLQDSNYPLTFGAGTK	nM	19.6
